Value source: PubChem BioAssay (NCI)

- System: SR leukemia
- ASSAY PROTOCOL: NCI tumour cell line growth inhibition, 48 h
Measured TGI accompanies every entry in the list below.

1) CC(=O)NC1(C(=O)N[C@@H](Cc2ccccc2)C(=O)NC2CCCCC2)Cc2ccc3ccccc3c2-c2c(ccc3ccccc23)C1 ... > 100 µM
2) O=[N+]([O-])c1ccc(O)c(/C=N/c2nc(-c3ccccc3)cs2)c1 ... 21.7 µM
3) CC(=O)/C=C1\CC(=O)Nc2ccccc2N1 ... > 100 µM

Quick one: TGI of NC(CC(O)(c1ccccc1)c1ccccc1)c1ccccc1S (stereo unspecified) ? > 100 µM

Entry under review: CC(=O)OC(C)c1cc2c(s1)C(=O)c1c(C(C)OC(C)=O)csc1C2=O (stereo unspecified) . Reported TGI? > 100 µM

Look at this molecule and give its reported TGI. COc1cccc(-c2nccc3c(OCc4ccccc4)c(OC)c(OC)cc23)c1 > 100 µM

* * *

- Test system: SR leukemia
- ASSAY PROTOCOL: NCI tumour cell line growth inhibition, 48 h
MEASURED ATTRIBUTE: TGI

1. Cc1cc2oc(C)c(S(=O)(=O)NC(=O)Nc3ccc(Cl)cc3)c(=O)c2c(=O)o1 ... > 100 µM
2. COC(=O)c1ccccc1C1=C([N+](=O)[O-])C(c2ccccc2)C(C#N)=C(N)O1 (stereo unspecified) ... > 100 µM
3. COc1cccc(C2SC(C)C(=O)N2CCc2cccs2)c1 (stereo unspecified) ... 15.5 µM
4. OCC(CCc1c[nH]c2ccccc12)c1c[nH]c2ccccc12 (stereo unspecified) ... 41.5 µM
5. O=C(CSc1nnc(-c2ccc(N=Cc3ccc(Cl)cc3)cc2)o1)Nc1ccc([N+](=O)[O-])cc1 ... 48.7 µM

I am curious: what TGI value has been reported for Cc1ccc(C=NC23CC4CC(CC(C4)C2)C3)cc1 ? > 100 µM

Form field: reported TGI of NCCCN1CCN(CCCNc2nc3ccccc3c3[nH]c4ccccc4c23)CC1 71.9 µM

Entry c1csc(-c2ccsc2-c2ccsc2)c1 has what TGI? > 100 µM

Look up TGI: COc1cccc(CCC(=O)c2cc3c(N)c(C(=O)Nc4cccc(Cl)c4C)sc3nc2C)c1 > 100 µM

Need TGI, item COc1cc(NC(=O)NCc2ccco2)ccc1-c1ccc(NC(=O)NCc2ccco2)cc1OC > 100 µM

Reported TGI for CCOC(=O)C(=CN1CCNC1=S)C(=O)OCC : what is it? > 100 µM

Suppose we examine the compound CC1[C@@H]2CC=C3[C@H]4CCC5Cc6nc7c(nc6C[C@@]5(C)C4(O)CC(=O)[C@]32CO[C@]12OC(C)(C)CC2O)CC1CC[C@@H]2C3=C[C@H]4O[C@@]5(O[C@@](C)(CO)C[C@@H]5O)C(C)[C@@]4(O)[C@]3(C)[C@@H](O)CC2[C@]1(C)C7 (stereo partly specified) ; what TGI value has been reported? 0.0821 µM

Which measured TGI value corresponds to COc1ccc(C2SCC(=O)N2NC(=O)C(C)Oc2ccccc2C)cc1 (stereo unspecified) ? > 100 µM

For the compound Nc1c(C(=O)N/N=C/c2ccc(-c3cc(Cl)c(Cl)cc3Cl)o2)cnn1-c1ccnc2c(C(F)(F)F)cccc12 , what TGI is on record? 72.9 µM

Give the measured TGI of O=C1C2=C(SCCS2)C(=O)c2c(Sc3ccc(Cl)cc3)c(Sc3ccc(Cl)cc3)c(Sc3ccc(Cl)cc3)c(Sc3ccc(Cl)cc3)c21 . 36.2 µM

Look at this compound and give its reported TGI. CCOC(=O)N1C(c2ccccc2)C=CC(c2ccccc2)N1C(=O)OCC (stereo unspecified) > 100 µM

Entry O=c1oc2c3ccc4cnccc4c3[nH]c2c2ccccc12 has what TGI? 4.19 µM

Reported TGI for COC12CCC(C(C(=O)c3ccccc3)=C1C(=O)c1ccccc1)C(O)C2 (stereo unspecified) : what is it? > 100 µM

Would you kindly share the measured TGI for N[C@H](CCC(=O)NCP(=O)(O)O)C(=O)O ? > 100 µM

Which TGI is listed for O=C(O)CNC(=O)c1ccc2cc(C(=O)N3CC(CCl)c4ccc([N+](=O)[O-])cc43)[nH]c2c1 (stereo unspecified) ? > 100 µM

Look up TGI for this compound: COc1ccccc1C1(C)SCc2nc3ccccc3n21 (stereo unspecified) > 10 µM
